Each item that follows carries a reported melting point.
Counter-ions that a name gives are not always drawn.
measure: melting point

* CC(=O)Nc1ccc2nc(-c3cc(C)c(O)c(C)c3)[nH]c(=O)c2c1 [Example 49] | 336.5 °C (dec.)
* NC(=O)COc1ccc(-c2nc3ccccc3c(=O)[nH]2)cc1 [Example 36] | 277.5 to 278.5 °C
* Cc1cc(-c2cc3nc(OC(C)C)cc(OC(C)C)c3c(=O)[nH]2)cc(C)c1O [Example 69] | 206 to 208 °C
* CC(=O)Nc1ccc2nc(-c3cc(C)c(OCCO)c(C)c3)[nH]c(=O)c2c1 [Example 68] | > 300 °C
* COc1cc(OC)c2c(=O)[nH]c(-c3ccc(CCC(=O)O)cc3)nc2c1 [Example 48] | 250.6 to 251.1 °C
* Cc1cc(C)c2c(=O)[nH]c(-c3cc(C)c(OCCO)c(C)c3)nc2c1 [Example 71] | 259.6 to 261.2 °C
* Cc1cc(-c2cc3ncccc3c(=O)[nH]2)cc(C)c1O (as salt: HCl) [Example 5] | > 350 °C
* COc1cc(OC)c2c(=O)[nH]c(-c3cc(C)c(OCC(=O)O)c(C)c3)nc2c1 [Example 59] | 270 to 272 °C
